assay: Acute oral toxicity, OECD 423 test; format: in vivo; conditions: 300 mg/kg, Day 2
recorded.endpoint: Average body weight (g)
Quick note: give the figure in g, leave out the unit.

Can you share its Average body weight? I mean this molecule: C[C@H]1Oc2cc(OS(N)(=O)=O)ccc2C2=C1[C@@H]1CCCC(=O)[C@@]1(C)CC2 [medicament]
27.1

* * *

test: Acute oral toxicity, OECD 423 test; assay type: in vivo; conditions: 300 mg/kg, Day 1 (before administration)
recorded.endpoint: Average body weight

Can you share its Average body weight? I mean this molecule: C[C@H]1Oc2cc(OS(N)(=O)=O)ccc2C2=C1[C@@H]1CCCC(=O)[C@@]1(C)CC2 [medicament]
27.4 g

* * *

test: Acute oral toxicity, OECD 423 test; format: in vivo; conditions: 300 mg/kg, Day 14
recorded.endpoint: Average body weight (g)
Quick note: give the figure in g, leave out the unit.

Can you share its Average body weight? I mean this molecule: C[C@H]1Oc2cc(OS(N)(=O)=O)ccc2C2=C1[C@@H]1CCCC(=O)[C@@]1(C)CC2 [medicament]
28.1

* * *

assay: Acute oral toxicity, OECD 423 test; type: in vivo; conditions: 2000 mg/kg, Day 7
recorded.endpoint: Average body weight (g)
Quick note: give the figure in g, leave out the unit.

Can you share its Average body weight? I mean this compound: C[C@H]1Oc2cc(OS(N)(=O)=O)ccc2C2=C1[C@@H]1CCCC(=O)[C@@]1(C)CC2
24.7

* * *

assay: Acute oral toxicity, OECD 423 test; assay type: in vivo; conditions: female, FVB transgenic for HER-2/neu, mouse, in vivo, po, oral (i.g.), mice, OECD 423
recorded.endpoint: LD50 at 14 days

Can you share its LD50 at 14 days? I mean this compound: C[C@H]1Oc2cc(OS(N)(=O)=O)ccc2C2=C1[C@@H]1CCCC(=O)[C@@]1(C)CC2
≥ 5000 mg/kg
